This collection of values is drawn from the supplement of paper PMC7877785.

# protocol: self-splicing fitness, log relative to wild type (ln ratio); higher = more splicing; Tetrahymena group I intron in knt gene, E. coli kanamycin selection, DiMSum; sequences stand for … in CUCUCU…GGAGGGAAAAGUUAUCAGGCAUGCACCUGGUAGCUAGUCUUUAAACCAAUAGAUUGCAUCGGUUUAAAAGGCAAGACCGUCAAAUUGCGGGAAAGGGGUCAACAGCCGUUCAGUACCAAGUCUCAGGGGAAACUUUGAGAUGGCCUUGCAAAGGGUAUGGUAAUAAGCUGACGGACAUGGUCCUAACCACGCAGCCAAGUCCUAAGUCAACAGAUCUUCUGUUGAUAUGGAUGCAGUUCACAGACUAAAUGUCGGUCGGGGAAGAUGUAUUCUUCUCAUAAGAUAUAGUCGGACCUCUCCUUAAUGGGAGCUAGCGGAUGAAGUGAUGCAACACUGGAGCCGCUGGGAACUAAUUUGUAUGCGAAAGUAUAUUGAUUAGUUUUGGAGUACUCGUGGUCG;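 further: selection with 25 µg/mL kanamycin versus none on LB agar overnight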
# experimental.parameters: 30 °C
Please provide measured self-splicing fitness (ln) for the entries that follow.
Answers are plain numbers.

Some sequences with recorded self-splicing fitness (ln):
AUACAGCAAUAUUACGCUUA: -1.67
UCGAAGCAAUAUUACGCGGG: -2.18
CCAGAGCAAUAUUACGACGG: -2.88
GCUCAGCAAUAUUACGAGUC: -4.08
UAAGAGCAAUAUUACGGGCG: -2.73
AUAGAGCAAUAUUACGCUUG: -0.549
CGUCAGCAAUAUUACGUCUU: -2.3
AUAGAGCAAUAUUACGGAGA: -1.97
GACAAGCAAUAUUACGCGCC: -2.58
GUCCAGCAAUAUUACGUCGA: -0.796

I'm hoping you can list self-splicing fitness (ln) for every sequence here, please.
1. UCGGAGCAAUAUUACGCAGG
2. GUAUAGCAAUAUUACGCCGA
3. UUAGAGCAAUAUUACGCGUG
4. GCGGAGCAAUAUUACGUGGG
5. GGAUAGCAAUAUUACGACAU
6. AGUUAGCAAUAUUACGUUCA
7. CCGCAGCAAUAUUACGCUCG
8. AUAGAGCAAUAUUACGUGAU

1: -2.57; 2: -2.97; 3: -0.924; 4: -2.01; 5: -0.425; 6: -1.28; 7: -1.9; 8: -2.02
